System: Bacteroides melaninogenicus 2736
experiment: standard agar-dilution test, anaerobic bacteria
Type: cell-based
appliedConditions: Bacteroides melaninogenicus 2736; 24-hour incubation; read-out: MIC
assayEndpoint: MIC (µg/mL)
API: value field is a number in µg/mL; no unit string.

Worked examples, 4 molecules total:
{"columns": ["molecule", "MIC, µg/mL"],
 "data": [
  ["C=C[C@]1(C)C[C@@H](OC(=O)CS[C@@H]2O[C@H](COC(C)=O)[C@@H](OC(C)=O)[C@H](OC(C)=O)[C@H]2OC(C)=O)[C@]2(C)[C@H](C)CC[C@]3(CCC(=O)[C@H]32)[C@@H](C)[C@@H]1O [Compound 11]", 16],
  ["CC[C@]1(C)C[C@@H](OC(=O)CS[C@@H]2O[C@H](COC(C)=O)[C@@H](OC(C)=O)[C@H](OC(C)=O)[C@H]2OC(C)=O)[C@]2(C)[C@H](C)CC[C@]3(CCC(=O)[C@H]32)[C@@H](C)[C@@H]1O [Compound 4]", 4],
  ["C=C[C@]1(C)C[C@@H](OC(=O)CS[C@@H]2OC[C@@H](O)[C@H](O)[C@H]2O)[C@]2(C)[C@H](C)CC[C@]3(CCC(=O)[C@H]32)[C@@H](C)[C@@H]1O [Compound 2]", 1],
  ["C=C[C@]1(C)C[C@@H](OC(=O)CS[C@@H]2OC[C@@H](OC(C)=O)[C@H](OC(C)=O)[C@H]2OC(C)=O)[C@]2(C)[C@H](C)CC[C@]3(CCC(=O)[C@H]32)[C@@H](C)[C@@H]1O [Compound 1]", 2]
]}

[in] State MIC on Bacteroides melaninogenicus 2736. Entry: C=C[C@]1(C)C[C@@H](OC(=O)CO[C@H]2O[C@H](COC(C)=O)[C@@H](OC(C)=O)[C@H](OC(C)=O)C2=NO)[C@]2(C)[C@H](C)CC[C@]3(CCC(=O)[C@H]32)[C@@H](C)[C@@H]1O [Compound 7]
[out] 32

[in] State MIC on Bacteroides melaninogenicus 2736. Entry: CC[C@]1(C)C[C@@H](OC(=O)CS[C@@H]2OC[C@@H](OC(C)=O)[C@H](OC(C)=O)[C@H]2OC(C)=O)[C@]2(C)[C@H](C)CC[C@]3(CCC(=O)[C@H]32)[C@@H](C)[C@@H]1O [Compound 6]
[out] 4

[in] State MIC on Bacteroides melaninogenicus 2736. Entry: CC[C@]1(C)C[C@@H](OC(=O)CS[C@@H]2OC[C@@H](O)[C@H](O)[C@H]2O)[C@]2(C)[C@H](C)CC[C@]3(CCC(=O)[C@H]32)[C@@H](C)[C@@H]1O [Compound 3]
[out] 0.5

[in] State MIC on Bacteroides melaninogenicus 2736. Entry: CC[C@]1(C)C[C@@H](OC(=O)CS[C@@H]2O[C@H](CO)[C@@H](O)[C@H](O)[C@H]2O)[C@]2(C)[C@H](C)CC[C@]3(CCC(=O)[C@H]32)[C@@H](C)[C@@H]1O [Compound 5]
[out] 4

[in] State MIC on Bacteroides melaninogenicus 2736. Entry: C=C[C@]1(C)C[C@@H](OC(=O)CS[C@@H]2O[C@H](CO)[C@@H](O)[C@H](O)[C@H]2O)[C@]2(C)[C@H](C)CC[C@]3(CCC(=O)[C@H]32)[C@@H](C)[C@@H]1O [Compound 10]
[out] 32
